- target: Cholesteryl ester transfer protein (Homo sapiens)
- Sequence (P11597 whole entry): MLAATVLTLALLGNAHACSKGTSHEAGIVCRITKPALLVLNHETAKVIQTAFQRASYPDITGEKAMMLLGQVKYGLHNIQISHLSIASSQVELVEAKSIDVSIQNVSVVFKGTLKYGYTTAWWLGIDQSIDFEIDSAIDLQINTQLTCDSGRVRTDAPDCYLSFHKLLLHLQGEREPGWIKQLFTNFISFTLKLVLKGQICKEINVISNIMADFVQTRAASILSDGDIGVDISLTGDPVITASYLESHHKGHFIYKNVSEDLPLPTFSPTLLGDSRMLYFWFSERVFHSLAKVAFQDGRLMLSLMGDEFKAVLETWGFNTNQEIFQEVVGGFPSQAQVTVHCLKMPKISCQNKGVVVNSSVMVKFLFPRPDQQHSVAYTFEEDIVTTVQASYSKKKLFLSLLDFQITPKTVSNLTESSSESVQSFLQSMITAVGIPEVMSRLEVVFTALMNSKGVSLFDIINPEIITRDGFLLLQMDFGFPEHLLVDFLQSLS
- assay.procedure: Inhibition of human CETP by scintillation proximity assay
The entries below come with measured pIC50 values attached.
// pIC50: -log10(molar conc.)

// known answers, use as guide
>  <compound>
Cc1ccccc1OCC(=O)Nc1ccc(-c2nc3cc(-c4ccccc4)ccc3o2)cc1

>  <target>
Cholesteryl ester transfer protein (Homo sapiens)

>  <reported.value>
5.72

$$$$
>  <compound>
Cc1cc(C)c2oc(-c3ccc(NC(=O)COc4ccc(Br)cc4C)cc3)nc2c1

>  <target>
Cholesteryl ester transfer protein (Homo sapiens)

>  <reported.value>
7.51

$$$$
>  <compound>
Cc1ccccc1OCC(=O)Nc1ccc(-c2nc3cc(Cl)cc(Br)c3o2)cc1

>  <target>
Cholesteryl ester transfer protein (Homo sapiens)

>  <reported.value>
7.01

$$$$

Now consider a different compound.
query: Sample Cc1cc(C)c2oc(-c3ccc(NC(=O)COc4ccccc4C(F)(F)F)cc3)nc2c1 — what was its pIC50?
result: 5.72

###

- target: Cholesteryl ester transfer protein (Homo sapiens, UniProt P11597)
- assay.procedure: Inhibition of human CETP by scintillation proximity assay
experimental.readout: IC50 (µM)
Please respond with the number in µM and leave the unit unwritten.

>  <compound>
CC(=O)c1cc(C)cc2nc(-c3ccc(NC(=O)COc4ccccc4C)cc3)oc12

>  <experimental.readout>
IC50

>  <unit.descriptor>
µM

>  <reported.value>
0.24

$$$$
>  <compound>
Cc1cc(C)c2oc(-c3ccc(NC(=O)COc4ccc(C)c5c4CCC5)cc3)nc2c1

>  <experimental.readout>
IC50

>  <unit.descriptor>
µM

>  <reported.value>
0.085

$$$$
>  <compound>
Cc1ccc(OCC(=O)Nc2ccc(-c3nc4cc(C)cc(C)c4o3)cc2)cc1

>  <experimental.readout>
IC50

>  <unit.descriptor>
µM

>  <reported.value>
0.24

$$$$

query: Kindly state the measured IC50 obtained for Cc1cc(C)c2oc(-c3ccc(NC(=O)COc4ccccc4-c4ccccc4)cc3)nc2c1 with Cholesteryl ester transfer protein (Homo sapiens, UniProt P11597).
result: 3.3

query: Query the reported IC50 for Cholesteryl ester transfer protein (Homo sapiens, UniProt P11597); item: Cc1cc(C)c2oc(-c3ccc(NC(=O)COc4ccc(Cl)c(C(F)(F)F)c4)cc3)nc2c1
result: 0.12

query: Lab note: need IC50 with Cholesteryl ester transfer protein (Homo sapiens, UniProt P11597) for entry Cc1c(Cl)ccc(OCC(=O)Nc2ccc(-c3nc4cc(C#N)ccc4o3)cc2)c1C , please look it up.
result: 0.01

query: Which IC50 is reported with Cholesteryl ester transfer protein (Homo sapiens, UniProt P11597) for this entry: Cc1cc(C)c2oc(-c3ccc(NC(=O)COc4ccc(Cl)c(Cl)c4)cc3)nc2c1 ?
result: 0.2
